pKi by entry:
measured-target: 5HT7 (Homo sapiens, UniProt P34969)
Sequence (P34969 whole entry): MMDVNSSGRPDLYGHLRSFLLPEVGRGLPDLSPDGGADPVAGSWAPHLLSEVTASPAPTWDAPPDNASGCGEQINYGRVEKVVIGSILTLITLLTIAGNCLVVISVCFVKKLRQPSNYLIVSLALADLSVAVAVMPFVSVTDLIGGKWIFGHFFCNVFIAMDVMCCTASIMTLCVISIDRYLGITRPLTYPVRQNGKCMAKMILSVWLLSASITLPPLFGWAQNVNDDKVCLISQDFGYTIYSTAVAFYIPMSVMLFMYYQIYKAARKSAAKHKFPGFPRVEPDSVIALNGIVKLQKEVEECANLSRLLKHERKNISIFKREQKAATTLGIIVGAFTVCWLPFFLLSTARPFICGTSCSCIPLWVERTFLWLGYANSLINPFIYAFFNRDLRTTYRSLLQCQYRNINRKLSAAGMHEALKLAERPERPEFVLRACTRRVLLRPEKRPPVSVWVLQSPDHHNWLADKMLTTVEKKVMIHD
protocol-text: Affinity (Ki) at 5HT7, HEK293 cells stably expressing 5HT7
condition-notes: Affinity Ki ± SEM at 5HT7
When answering, recall that pKi equals minus log10 of the concentration in mol/L, and write that number alone.

The following molecules have reported results that may help.
{"molecule": "CN(C)[C@H]1CCc2c(cccc2-c2ccccc2F)C1.Cl [(S)-5-FPT, HCl]", "pKi": 8.30}
{"molecule": "CN(C)[C@H]1CCc2c(cccc2-c2ccccc2)C1.Cl [(S)-5-PT, HCl]", "pKi": 8.02}

The record that follows has no pKi shown yet.
What value of pKi has been reported for the following molecule? CN(C)[C@H]1CCc2c(cccc2-c2cccn2C)C1 [(S)-5-PyT]
7.48
